B1: KRT18 (parent)
chain: RVRSLETENRRLESKIREHLEKKG

Variants of: B1
procedure summary: protein stability index of a GFP-peptide fusion (GPS, HEK-293T) (PSI 1-6); higher = more stable;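 further: lentivirally expressed fusions sorted by FACS into six bins by GFP to DsRed ratio, PSI derived from sequencing read proportions per bin multiplied by bin number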
cond: c terminus: a fixed tail appended
Where protein stability index equals or exceeds 4, the correct label is 1 (yes); where it does not, the label is 0 (no).

Assess whether reported protein stability index for "RKRSLETENRRLESKIREHLEKKG" sits at 4 or higher.
1 (yes)

Assess whether reported protein stability index for "RVRSLETENRRLEVKIREHLEKKG" sits at 4 or higher.
1 (yes)

Assess whether reported protein stability index for "RVRSLETENRRLESRIREHLEKKG" sits at 4 or higher.
1 (yes)

Assess whether reported protein stability index for "RVRSLYTENRRLESKIREHLEKKG" sits at 4 or higher.
0 (no)

Assess whether reported protein stability index for "RVRSLETINRRLESKIREHLEKKG" sits at 4 or higher.
1 (yes)

Assess whether reported protein stability index for "RVRSLETEARRLESKIREHLEKKG" sits at 4 or higher.
0 (no)

Assess whether reported protein stability index for "RVRSLETENARLESKIREHLEKKG" sits at 4 or higher.
1 (yes)

Assess whether reported protein stability index for "RVRSLETENRRLESKLREHLEKKG" sits at 4 or higher.
1 (yes)

Assess whether reported protein stability index for "RVRSLETENRRLETKIREHLEKKG" sits at 4 or higher.
1 (yes)

Assess whether reported protein stability index for "RVRSLETEFRRLESKIREHLEKKG" sits at 4 or higher.
0 (no)

Assess whether reported protein stability index for "RVRSLEQENRRLESKIREHLEKKG" sits at 4 or higher.
1 (yes)

Assess whether reported protein stability index for "RVRSLETENRRLESKIREALEKKG" sits at 4 or higher.
1 (yes)

Assess whether reported protein stability index for "RVRSLETENRRLESKQREHLEKKG" sits at 4 or higher.
1 (yes)

Assess whether reported protein stability index for "RVRCLETENRRLESKIREHLEKKG" sits at 4 or higher.
0 (no)

Assess whether reported protein stability index for "RVRSNETENRRLESKIREHLEKKG" sits at 4 or higher.
1 (yes)

Assess whether reported protein stability index for "RVRSLETENKRLESKIREHLEKKG" sits at 4 or higher.
1 (yes)

Assess whether reported protein stability index for "RVRSLETENRRLESKDREHLEKKG" sits at 4 or higher.
1 (yes)

Assess whether reported protein stability index for "RVRSLETENRRLESKIREHLECKG" sits at 4 or higher.
1 (yes)

Assess whether reported protein stability index for "RVRSLETENRRLASKIREHLEKKG" sits at 4 or higher.
1 (yes)

Assess whether reported protein stability index for "RVRSLETENRRLESKIRESLEKKG" sits at 4 or higher.
1 (yes)

Assess whether reported protein stability index for "RVRSLETENRRLESKIREHLEKGG" sits at 4 or higher.
1 (yes)

Assess whether reported protein stability index for "RVRSLETENRRLESKIREWLEKKG" sits at 4 or higher.
0 (no)

Assess whether reported protein stability index for "RVRSLETENRRLEIKIREHLEKKG" sits at 4 or higher.
1 (yes)

Assess whether reported protein stability index for "RVRSLETENRRLESKIREHLGKKG" sits at 4 or higher.
1 (yes)

Assess whether reported protein stability index for "RVRSLETENRRLESKIREHLEKNG" sits at 4 or higher.
1 (yes)

Assess whether reported protein stability index for "RVRSLETENRRLESKIREHMEKKG" sits at 4 or higher.
1 (yes)

Assess whether reported protein stability index for "RVRSLEPENRRLESKIREHLEKKG" sits at 4 or higher.
1 (yes)

Assess whether reported protein stability index for "RVRSLETEVRRLESKIREHLEKKG" sits at 4 or higher.
0 (no)

Assess whether reported protein stability index for "RVRSLETENRRLESKIRVHLEKKG" sits at 4 or higher.
0 (no)

Assess whether reported protein stability index for "RVKSLETENRRLESKIREHLEKKG" sits at 4 or higher.
1 (yes)

Assess whether reported protein stability index for "RVRSLETENRRLESKIAEHLEKKG" sits at 4 or higher.
0 (no)

Assess whether reported protein stability index for "RVRSLETENRRLESKIREHLLKKG" sits at 4 or higher.
0 (no)

Assess whether reported protein stability index for "RVPSLETENRRLESKIREHLEKKG" sits at 4 or higher.
1 (yes)

Assess whether reported protein stability index for "RVRSLETENRRLECKIREHLEKKG" sits at 4 or higher.
0 (no)

Assess whether reported protein stability index for "RVRMLETENRRLESKIREHLEKKG" sits at 4 or higher.
0 (no)

Assess whether reported protein stability index for "RVRSLETENRRLESKIREHLEKKF" sits at 4 or higher.
0 (no)

Assess whether reported protein stability index for "RVRSLETENRRLELKIREHLEKKG" sits at 4 or higher.
1 (yes)

Assess whether reported protein stability index for "RVRSLETENRRLESKIYEHLEKKG" sits at 4 or higher.
1 (yes)

Assess whether reported protein stability index for "RVRSQETENRRLESKIREHLEKKG" sits at 4 or higher.
1 (yes)

Assess whether reported protein stability index for "RVCSLETENRRLESKIREHLEKKG" sits at 4 or higher.
0 (no)

Assess whether reported protein stability index for "RVRSDETENRRLESKIREHLEKKG" sits at 4 or higher.
1 (yes)

Assess whether reported protein stability index for "RVRSLETENRRLEGKIREHLEKKG" sits at 4 or higher.
1 (yes)
